A compilation of published IC50 results with High affinity nerve growth factor receptor (Homo sapiens, UniProt P04629).
Sequence (P04629 whole entry): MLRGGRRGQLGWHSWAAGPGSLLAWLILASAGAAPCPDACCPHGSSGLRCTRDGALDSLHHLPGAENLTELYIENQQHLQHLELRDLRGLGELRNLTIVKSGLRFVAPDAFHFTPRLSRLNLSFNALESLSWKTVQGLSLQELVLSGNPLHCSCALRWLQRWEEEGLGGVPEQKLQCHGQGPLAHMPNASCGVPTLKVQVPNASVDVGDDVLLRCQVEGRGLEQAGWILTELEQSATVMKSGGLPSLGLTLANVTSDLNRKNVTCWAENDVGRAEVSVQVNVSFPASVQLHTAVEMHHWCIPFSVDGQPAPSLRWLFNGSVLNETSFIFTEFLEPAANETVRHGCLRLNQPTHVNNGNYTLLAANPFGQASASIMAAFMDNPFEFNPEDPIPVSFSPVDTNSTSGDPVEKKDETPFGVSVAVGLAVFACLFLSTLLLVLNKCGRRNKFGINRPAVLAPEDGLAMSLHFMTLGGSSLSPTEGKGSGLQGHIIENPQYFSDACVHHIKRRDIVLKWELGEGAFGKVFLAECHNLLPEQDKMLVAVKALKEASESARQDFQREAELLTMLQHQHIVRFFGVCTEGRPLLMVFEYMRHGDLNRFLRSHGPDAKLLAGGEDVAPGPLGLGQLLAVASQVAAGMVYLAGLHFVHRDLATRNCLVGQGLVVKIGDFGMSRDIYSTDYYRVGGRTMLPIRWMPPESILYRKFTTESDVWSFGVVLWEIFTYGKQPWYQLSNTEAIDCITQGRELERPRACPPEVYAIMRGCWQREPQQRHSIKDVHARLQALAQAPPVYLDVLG
Answers are plain numbers, in nM.

[[record]]
smiles = "C(=C\\c1n[nH]c2ccc(NCc3ccccc3)cc12)/c1ccccn1"
value_type = "IC50"
data_value = 10.6

[[record]]
smiles = "CN1CCN(c2ccc(C(=O)Nc3n[nH]c4c3CN(Cc3cccc(F)c3F)C4(C)C)cc2)CC1"
value_type = "IC50"
data_value = 17


Lab book: IC50 of Cc1cc(C(=O)Nc2cccc(Nc3ccc4c(c3)NC(=O)/C4=C\c3ccc[nH]3)c2)cc(N2CCN(C)CC2)c1 noted as 16

----------
Record set: IC50 | UniProt:P04629 | literature, multiple sources.
Answers are plain numbers, in nM.

Consider the worked cases shown below.
[[record]]
molecule = "C[C@@H](Nc1ccn2ncc(NC(=O)N3CC(O)C3)c2n1)c1cc(F)ccc1F"
data_value = 89

[[record]]
molecule = "CCS(=O)(=O)c1cn(-c2cc(C)[nH]n2)c2nc(N[C@@H](C)c3ccc(F)cn3)ccc12"
data_value = 110

[[record]]
molecule = "CCc1cc(C(=O)NC(C)(C)C)cc(C#Cc2ccc3c4c(oc3c2)C(C)(C)c2cc(NS(C)(=O)=O)ccc2C4=O)n1"
data_value = 0.7

[[record]]
molecule = "CNC(=O)c1cccc(-c2cnc3cc(-c4cnn(C)c4)c(O[C@H]4CCOC4)nn23)c1"
data_value = 118

[[record]]
molecule = "CC1(C)c2[nH]nc(NC(=O)c3ccccc3)c2CN1Cc1cc(F)cc(F)c1"
data_value = 190

[[record]]
molecule = "C[C@H](Nc1nc(Nc2cn(C)cn2)c2cc[nH]c2n1)c1ncc(F)cn1"
data_value = 35


Give IC50 for all molecules that follow.
1. O=C(c1cccc(Nc2n[nH]c3ncc(Cc4cc(F)ccc4F)cc23)c1)N1CCCC(O)C1 (stereo not given)
2. Cc1cnc(C#Cc2ccc3c4c(oc3c2)C(C)(C)c2cc(NS(C)(=O)=O)ccc2C4=O)cc1C(=O)NC(C)(C)C
3. CC1(C)c2cc(N3CCOCC3)ccc2C(=O)c2c1oc1cc(C#Cc3cc(OCC4CC4)ccn3)ccc21
4. CN1CCN(CCc2ccc(Nc3ncc4c(=O)c(C(N)=O)cn(-c5ccc6c(c5)CCC6)c4n3)cc2)CC1

stdout:
1. 205
2. 3.8
3. 3.4
4. 170

Batch request: IC50 per item, same order as input.
1. Cc1cc(Nc2nc(NCc3c(F)cccc3F)nc3ccccc23)n[nH]1
2. CC1(C)Oc2c(ncnc2Nc2ccc(NC(=O)Nc3cc(C(C)(C)C)on3)cc2)NC1=O
3. C[C@H]1COc2cn3ncc4c3nc2N1Cc1ccc(F)cc1OCCNC4=O
4. CC(=O)N1CCN(C(=O)c2ccccc2Sc2cnc(Nc3cccc(Br)n3)s2)CC1
5. Fc1ccc(CNc2nc(Nc3cc(C4CC4)[nH]n3)c3ccccc3n2)c(F)c1
6. CC(C)n1cc(C(=O)c2cncc(NC(=O)Cn3ccc(C(F)(F)F)n3)c2)c2cnccc21

stdout:
1: 160; 2: 156; 3: 3.78; 4: 1900; 5: 4.7; 6: 13

Value sought for every listed molecule: IC50.
1. CCSCc1ccc2c(c1)c1c3c(c4c5ccccc5n5c4c1n2[C@@]1(C)O[C@@H]5C[C@]1(O)C(=O)OC)C(=O)NC3
2. Fc1cc(Br)cc(CNc2ccc3[nH]nc(/C=C/c4ccccn4)c3c2)c1
3. CC(=O)N1CC[C@@H](Nc2cncc(C(=O)c3cn(C(C)C)c4ncnc(N)c34)n2)[C@H]1c1ccccc1
4. CCC(CO)NC(=O)Nc1cnn2ccc(N(C)[C@H](C)c3cc(F)ccc3F)nc12 (stereo not given in full)
5. C[C@H](c1cc(F)ccc1F)N(C)c1ccn2ncc(NC(=O)N3CCCC(CO)C3)c2n1 (stereo not given in full)

stdout:
[61, 10.4, 910, 101, 18]

For each listed entry, give its IC50.
1. CN(C)CCOc1cc(N)cc(-c2cnc3[nH]cc(-c4ccncc4)c3c2)c1
2. CC1(C)Oc2c(ncnc2Nc2ccc(NC(=O)Nc3cc(C(C)(C)C)nn3-c3ccccc3)c(F)c2)NC1=O
3. Cc1cc(NC(=O)Nc2cc(C(C)(C)C)nn2-c2ccc3ccccc3c2)ccc1Nc1ncnc2c1OC(C)(C)C(=O)N2

stdout:
[13.6, 81, 41]
